- Tested system: human insulin receptor isoform B (human, UniProt P06213 28-1382)
- Assay text: cell-based or functional assay
Parameter hIR-B-phosphorylation [EC50 nM] mean: see the listing below.
Numeric answer only, unit nM assumed.

>  <Binder>
scl-Fc fusion protein INS022 (Fc fusion) FVNQHLCGSHLVEALELVCGERGFHYTPKTGSYPGGVGIVEQCCTSICSLSQLENYCGGEAEDLQVGQVELGGGPGAGSLQPEGSLQGGPSVFLFPPKPKDTLMISRTPEVTCVVVDVSHEDPEVKFNWYVDGVEVHNAKTKPREEQYNSTYRVVSVLTVLHQDWLNGKEYKCKVSNKALPAPIEKTISKAKGQPREPQVYTLPPSRDELTKNQVSLTCLVKGFYPSDIAVEWESNGQPENNYKTTPPVLDSDGSFFLYSKLTVDKSRWQQGNVFSCSVMHEALHNHYTQKSLSLSPGGGGGSAESKYGPPCPPCPA

>  <Unit of measure>
nM

>  <Value>
42.2

$$$$
>  <Binder>
scl-Fc fusion protein INS020 (Fc fusion) FVNQHLCGSHLVEALELVCGERGFHYTPKTEEYPGDVGIVEQCCTSICSLSQLENYCGGEAEDLQVGQVELGGGPGAGSLQPEGSLQGGPSVFLFPPKPKDTLMISRTPEVTCVVVDVSHEDPEVKFNWYVDGVEVHNAKTKPREEQYNSTYRVVSVLTVLHQDWLNGKEYKCKVSNKALPAPIEKTISKAKGQPREPQVYTLPPSRDELTKNQVSLTCLVKGFYPSDIAVEWESNGQPENNYKTTPPVLDSDGSFFLYSKLTVDKSRWQQGNVFSCSVMHEALHNHYTQKSLSLSPGGGGGSAESKYGPPCPPCPA

>  <Unit of measure>
nM

>  <Value>
185

$$$$
>  <Binder>
scl-Fc fusion protein INS008 (Fc fusion) SFVNQHLCGSHLVEALELVCGERGFHYTDKTGSYPGGVGIVEQCCTSICSLEQLENYCGGEAEDLQVGQVELGGGPGAGSLQPEGSLQGGPSVFLFPPKPKDTLMISRTPEVTCVVVDVSHEDPEVKFNWYVDGVEVHNAKTKPREEQYNSTYRVVSVLTVLHQDWLNGKEYKCKVSNKALPAPIEKTISKAKGQPREPQVYTLPPSRDELTKNQVSLTCLVKGFYPSDIAVEWESNGQPENNYKTTPPVLDSDGSFFLYSKLTVDKSRWQQGNVFSCSVMHEALHNHYTQKSLSLSPGGGGGSAESKYGPPCPPCPA

>  <Unit of measure>
nM

>  <Value>
90

$$$$
>  <Binder>
scl-Fc fusion protein INS002 (Fc fusion) FVNQHLCGSHLVEALYLVCGERGFFYTDKTEEYPGDVGIVEQCCTSICSLEQLENYCGGEAEDLQVGQVELGGGPGAGSLQPLALEGSLQGGPSVFLFPPKPKDTLMISRTPEVTCVVVDVSHEDPEVKFNWYVDGVEVHNAKTKPREEQYNSTYRVVSVLTVLHQDWLNGKEYKCKVSNKALPAPIEKTISKAKGQPREPQVYTLPPSRDELTKNQVSLTCLVKGFYPSDIAVEWESNGQPENNYKTTPPVLDSDGSFFLYSKLTVDKSRWQQGNVFSCSVMHEALHNHYTQKSLSLSPGGGGGSAESKYGPPCPPCPA

>  <Unit of measure>
nM

>  <Value>
22.8

$$$$
>  <Binder>
scl-Fc fusion protein INS010 (Fc fusion) SFVNQHLCGSHLVEALHLVCGERGFAYTPKTEEYPGDVGIVEQCCTSICSLEQLENYCGGEAEDLQVGQVELGGGPGAGSLQPEGSLQGGPSVFLFPPKPKDTLMISRTPEVTCVVVDVSHEDPEVKFNWYVDGVEVHNAKTKPREEQYNSTYRVVSVLTVLHQDWLNGKEYKCKVSNKALPAPIEKTISKAKGQPREPQVYTLPPSRDELTKNQVSLTCLVKGFYPSDIAVEWESNGQPENNYKTTPPVLDSDGSFFLYSKLTVDKSRWQQGNVFSCSVMHEALHNHYTQKSLSLSPGGGGGSAESKYGPPCPPCPA

>  <Unit of measure>
nM

>  <Value>
501

$$$$
>  <Binder>
scl-Fc fusion protein INS019 (Fc fusion) SFVNQHLCGSHLVEALELVCGERGFHYTPKTGSYPGGVGIVEQCCTSICSLSQLEDYCGGEAEDLQVGQVELGGGPGAGSLQPEGSLQGGPSVFLFPPKPKDTLMISRTPEVTCVVVDVSHEDPEVKFNWYVDGVEVHNAKTKPREEQYNSTYRVVSVLTVLHQDWLNGKEYKCKVSNKALPAPIEKTISKAKGQPREPQVYTLPPSRDELTKNQVSLTCLVKGFYPSDIAVEWESNGQPENNYKTTPPVLDSDGSFFLYSKLTVDKSRWQQGNVFSCSVMHEALHNHYTQKSLSLSPGGGGGSAESKYGPPCPPCPA

>  <Unit of measure>
nM

>  <Value>
292

$$$$
>  <Binder>
scl-Fc fusion protein INS017 (Fc fusion) SFVNQHLCGSHLVEALHLVCGERGFHYTPKTGSYPGGVGIVEQCCTSICSLSQLENYCGGEAEDLQVGQVELGGGPGAGSLQPEGSLQGGPSVFLFPPKPKDTLMISRTPEVTCVVVDVSHEDPEVKFNWYVDGVEVHNAKTKPREEQYNSTYRVVSVLTVLHQDWLNGKEYKCKVSNKALPAPIEKTISKAKGQPREPQVYTLPPSRDELTKNQVSLTCLVKGFYPSDIAVEWESNGQPENNYKTTPPVLDSDGSFFLYSKLTVDKSRWQQGNVFSCSVMHEALHNHYTQKSLSLSPGGGGGSAESKYGPPCPPCPA

>  <Unit of measure>
nM

>  <Value>
36

$$$$

Would you kindly look at the next entry?
*Q* Entry under review: scl-Fc fusion protein INS011 (Fc fusion) SFVNQHLCGSHLVEALHLVCGERGFAYTPKTGSYPGGVGIVEQCCTSICSLEQLENYCGGEAEDLQVGQVELGGGPGAGSLQPEGSLQGGPSVFLFPPKPKDTLMISRTPEVTCVVVDVSHEDPEVKFNWYVDGVEVHNAKTKPREEQYNSTYRVVSVLTVLHQDWLNGKEYKCKVSNKALPAPIEKTISKAKGQPREPQVYTLPPSRDELTKNQVSLTCLVKGFYPSDIAVEWESNGQPENNYKTTPPVLDSDGSFFLYSKLTVDKSRWQQGNVFSCSVMHEALHNHYTQKSLSLSPGGGGGSAESKYGPPCPPCPA . Reported hIR-B-phosphorylation [EC50 nM] mean?
*A* 110
